FYI, the data here is from patent US20230095569A1.

The binders listed here are annotated with their Max CDC induced tumor cell killing (% of control).
target: human Claudin18.2 (CLDN18.2) (human, UniProt P56856 1-261); experiment: cell-based or functional assay

Example entries and their recorded answers appear below.
chAb18 (antibody, V domains shown) VH: QVQLKESGPGLVAPSQSLSITCTVSGFSLTTYGINWVRQPPGKGLEWLGVIWGDGSTNYHSALISRLSISKDNSKSQVFLKLNSLQTDDTATYYCVKSSYYGNAMDYWGQGTSVTVSS VL: DIVMTQSPSSLTVTAGETVTMSCKSSQSLLNSGNQKNYLTWYQQKPGQPPKLLIYWASTRESGVPDRFTGSGSGTDFTLTISSVQAEDLAVYYCQNVYSYPFTFGSGTKLEI | 75.3 % of control
chAb29 (antibody, V domains shown) VH: EVLLQQSGPELVKPGASVKIPCKASGYTLTDHSMDWVKQSHGKSLEWIGNILPNNGGNIYNQKFRGKATLTVDKSSSTAYMELRSLTSEDTAVYNCARGHYGNSFAYWGQGTLVIVS VL: DIVMTQSPSSLTVRAGEKVTIYCKSSQSLFNSGNQKNYLTWYQQKPGQPPKLLIYWASTRESGVPHRFTGSGSGTDFTLTISSMQADDLATYYCQNGYFFPYTFGGGTKLEIK | 67.8 % of control
chAb05 (antibody, V domains shown) VH: DVKLVESGEDLVKPGGSLKLSCAASGFTFSNYAMSWVRQTPEKRLEWVAYVSSGGDYIYYADTVKGRFIISRDNARNTLYLQMNSLRSEDTAMYYCARVYFGNSLDYWGQGTTLTVSS VL: DIVMTQSPSSLTVTAGEKVTLSCKSSQSLLNGGNQKNYLTWYQQRPGQPPKLLIYWASTRESGVPDRFTGSGSGTDFTLIISSVQAEDLAVYYCQNDYYYPWTFGGGTKLEIK | 78.9 % of control

Enquiry: Which Max CDC induced tumor cell killing (% of control) is listed for chAb11 (antibody, V domains shown) VH: EVMLVESGGDLVKPGGSLKLSCAASGFTFSRYTMSWVRQTPEKRLEWVATVSVGSGNTYYLDSVKGRFTISRDNAKNTLFLQMNSLRSEDTALYYCTRLGQTQRNAVDYWGQGTSVTVSS VL: DIVMTQSPSFLSVSAGEKVTMSCKSSQSLFNGGNQKNYLAWYQQKPGQPPKLLIYGASTRDSGVPDRFTGSGSGTDFTLTISNVQAEDLAIYFCQNDHSFPLTFGAGTKLELK ?
Return: 71.2 % of control

Enquiry: Also, chAb15 (antibody, V domains shown) VH: EVMLVESGGDLVKPGGSLKLSCAASGFTFSTYTMSWVRQTPEKRLEWVATIVGGGGYTYYLDSVKGRFTISRDNAKNTLYLQMISLRSEDTALYYCARMGLTQRNALDYWGQGTSITVSS VL: DIVMTQSPSSLSVSEGEKVTLNCKSSQSLFNSGNQKNYLAWYQQKPGQPPKLLIYGASTRESGVPDRFTGSGFGTDFTLTISSVQAEDLAVYYCQNDHTYPLTFGAGAKLELK please.
Return: 77.4 % of control
